Reference for the values: PubChem BioAssay (NCI)

# Tested on: COLO 205 colon
# experiment summary: NCI-60 one-dose screen, 48 h (100 = growth as untreated, 0 = no growth, -100 = all killed)
# measurement conditions: 10 µM unless noted
Compounds without any hit were thinned out: in the full panel of roughly 83,000, 20% have a hit. Calls of active or inactive are those of the source. How the source made its calls: active means growth percent below 10; inactive means the rest.

molecule	growth
COc1cc(NCCC2CCCCN2)c2ncccc2c1OC (configuration not stated)	78.1% (inactive)
FC(F)(F)c1nn[nH]n1	122% (inactive)
O=c1c2cc(Br)cc(Br)c2nc(-c2ccc(Cl)cc2)n1/N=C/c1cccc(F)c1	54.3% (inactive)
O=C1/C=C/[C@@H](O)[C@@H]2C[C@@H](O)C[C@H]2/C=C/CCC[C@H]([C@@H](O)CO)O1	94.3% (inactive)
COc1ccc(/C=C(\C#N)c2cc(OC)c(OC)c(OC)c2)cc1	-69.7% (active)
CO[C@H](C(=O)[C@@H](O)[C@@H](C)O)[C@@H]1Cc2cc3cc(O[C@H]4C[C@@H](O[C@H]5C[C@@H](O)[C@H](O)C(C)O5)[C@H](O)C(C)O4)c(C)c(O)c3c(O)c2C(=O)[C@H]1O[C@H]1C[C@@H](O[C@H]2C[C@@H](O[C@H]3C[C@](C)(O)C(=O)C(C)O3)[C@@H](O)C(C)O2)[C@H](O)C(C)O1 (some centres not stated)	-52.4% (active)
COc1cccc(/C(C)=N/NC(=O)CSc2nc3ccccc3c(=O)n2CCc2ccc(S(N)(=O)=O)cc2)c1	42.9% (inactive)
COc1ccc(C(=O)N2N=C(c3ccc(F)cc3)CC2c2cn(-c3ccccc3)nc2-c2ccccc2)cc1 (configuration not stated)	57% (inactive)
COc1cc2c(cc1OC)-c1cc(OC)c(OC)cc1C(CN(C)C)C2 (configuration not stated)	100% [100 µM] (inactive)
CCN(CC)CCCC(C)Nc1ccnc2ccc(Oc3ccccc3)cc12 (configuration not stated)	41.4% (inactive)
O=C(CCCCCCN1CC(=O)N2[C@@H](c3ccc(Cl)c(Cl)c3)c3[nH]c4ccccc4c3C[C@H]2C1=O)NO	58.9% (inactive)
CSc1ccc(/C=C2\C=C(CC(=O)NCc3ccc(C(=O)c4ccccc4)cc3)c3cc(F)ccc32)cc1	-75.6% (active)
CC(C)[C@@]12C[C@@H](OC(=O)C3CO3)[C@@](C)(O1)[C@@H]1CC[C@@H](C)[C@H]1[C@@H]2OC(=O)/C=C/c1ccccc1 (some centres not stated)	107% (inactive)
CC(NC(=O)c1ccccc1)C(=O)Nc1ccccc1 (configuration not stated)	106% (inactive)
O=C(/C=C/c1ccco1)c1ccccc1O	119% (inactive)
CCCCCCCCCCCC1=NC(C)(C)CN1C(C)C	-53.7% (active)
O=C(CC(=O)c1cccc(Cl)c1)c1cccc(Cl)c1	46.9% (inactive)
Fc1cc(-c2cnc3nonc3n2)c(Cl)cc1Cl	60.2% (inactive)
CC(C)c1cccc(C#N)c1	115% (inactive)
C=CCN(CC#N)CC=C	113% (inactive)
CCOC(=O)Nc1ccc2nc(Sc3ccc(Cl)cc3)sc2c1	-26.4% (active)
COc1ccc(Nc2nc(N)nc3c(=O)[nH]ccc23)cc1	118% (inactive)
